- System: Swiss 3T3 mouse fibroblasts
- ASSAY_COMMENT: Growth inhibition assay, Swiss 3T3 fibroblasts
- Format: cell-based
- MEASUREMENT_CONDITIONS: Swiss 3T3, 72 hours, Table 2, read-out: IC50 growth inhibition
// returns 0 unless IC50 is strictly below 4 µM, in which case 1

COMPOUND | LABEL_CLASS
CN(C)CCNC(=O)c1c(SSc2c(C(=O)NCCN(C)C)c3ccccc3n2C)n(C)c2ccccc12 [Compound 115] | 0
COc1cccc2c(C(=O)Nc3ccccc3)c(SSc3c(C(=O)Nc4ccccc4)c4cccc(OC)c4n3C)n(C)c12 [Compound 82] | 0
O=C(O)CCC1C(=S)Nc2ccccc21 (stereo not shown) [Compound 7, 3-(2-thioxo-3-indolinyl)propanoic acid] | 0
Cn1c(SSc2c(C(=O)Nc3ccccc3)c3cc(Cl)ccc3n2C)c(C(=O)Nc2ccccc2)c2cc(Cl)ccc21 [Compound 73] | 0
COc1cccc2c1c(C(=O)Nc1ccccc1)c(SSc1c(C(=O)Nc3ccccc3)c3c(OC)cccc3n1C)n2C [Compound 79] | 1
O=C(O)CCc1c(SSc2[nH]c3ccccc3c2CCC(=O)O)[nH]c2ccccc12 [Compound 36] | 0
Cc1ccc2[nH]c(SSc3[nH]c4ccc(C)cc4c3CCC(=O)O)c(CCC(=O)O)c2c1 [Compound 41] | 0
COc1ccc2c(C(=O)Nc3ccccc3)c(SSc3c(C(=O)Nc4ccccc4)c4ccc(OC)cc4n3C)n(C)c2c1 [Compound 81] | 0
Cn1c(SSc2c(CC(=O)O)c3ccccc3n2C)c(CC(=O)O)c2ccccc21 [Compound 32] | 0
COC(=O)Cc1c(SSSc2[nH]c3ccccc3c2CC(=O)OC)[nH]c2ccccc12 [Compound 31] | 1
CCOC(=O)CCc1c(SSc2[nH]c3c(C)cccc3c2CCC(=O)OCC)[nH]c2c(C)cccc12 [Compound 46] | 1
O=C(CCc1c(SSc2[nH]c3ccccc3c2CCC(=O)NCc2ccccc2)[nH]c2ccccc12)NCc1ccccc1 [Compound 47] | 0
Cc1ccc2c(c1)c(C(=O)Nc1ccccc1)c(SSc1c(C(=O)Nc3ccccc3)c3cc(C)ccc3n1C)n2C [Compound 76] | 0
COC(=O)CCC1C(=S)Nc2ccccc21 (stereo not shown) [Compound 9] | 0
COC(=O)Cc1c(SSc2[nH]c3ccccc3c2CC(=O)OC)[nH]c2ccccc12 [Compound 27] | 1
Cn1c(SSc2c(C(=O)Nc3ccccc3)c3cccnc3n2C)c(C(=O)Nc2ccccc2)c2cccnc21 [Compound 83] | 0
CCOC(=O)CCc1c(SSc2[nH]c3cc(C)ccc3c2CCC(=O)OCC)[nH]c2cc(C)ccc12 [Compound 44] | 1
CCOC(=O)CCC1C(=S)Nc2ccccc21 (stereo not shown) [Compound 10] | 0
COC(=O)CCCc1c(SSc2c(CCCC(=O)OC)c3ccccc3n2C)n(C)c2ccccc12 [Compound 68] | 1
CNC(=O)c1c(SSc2c(C(=O)NC)c3ccccc3n2C)n(C)c2ccccc12 [Compound 97] | 1

Hey, just so you know, these numbers are from patent US5464861A.
